assay: Pharmacokinetics in Sprague Dawley rats (Table 4); type: in vivo; settings: Sprague Dawley, in vivo; rat, IV (2 mg/kg)
Assay Readout: AUC(0-inf) (ng·h/mL)
Reply numerically in ng·h/mL, unit not repeated.

Compound | Unit Name | Reading
O=C(c1ccccc1)N1CCN(c2ccnc3cc(Cl)ccc23)CC1 [Compound D1] | ng·h/mL | 5900
O=C(c1ccc(N2CCCC2)c([N+](=O)[O-])c1)N1CCN(c2ccnc3cc(Cl)ccc23)CC1 [Compound D6] | ng·h/mL | 8640

Shifting focus to the compound that follows.
Name the recorded AUC(0-inf) of the compound listed here: O=C(c1ccccc1F)N1CCN(c2ccnc3cc(Cl)ccc23)CC1 [Compound D2]
1840
